molecular target: UniProtKB O95342; type: functional
Sequence (O95342 whole entry): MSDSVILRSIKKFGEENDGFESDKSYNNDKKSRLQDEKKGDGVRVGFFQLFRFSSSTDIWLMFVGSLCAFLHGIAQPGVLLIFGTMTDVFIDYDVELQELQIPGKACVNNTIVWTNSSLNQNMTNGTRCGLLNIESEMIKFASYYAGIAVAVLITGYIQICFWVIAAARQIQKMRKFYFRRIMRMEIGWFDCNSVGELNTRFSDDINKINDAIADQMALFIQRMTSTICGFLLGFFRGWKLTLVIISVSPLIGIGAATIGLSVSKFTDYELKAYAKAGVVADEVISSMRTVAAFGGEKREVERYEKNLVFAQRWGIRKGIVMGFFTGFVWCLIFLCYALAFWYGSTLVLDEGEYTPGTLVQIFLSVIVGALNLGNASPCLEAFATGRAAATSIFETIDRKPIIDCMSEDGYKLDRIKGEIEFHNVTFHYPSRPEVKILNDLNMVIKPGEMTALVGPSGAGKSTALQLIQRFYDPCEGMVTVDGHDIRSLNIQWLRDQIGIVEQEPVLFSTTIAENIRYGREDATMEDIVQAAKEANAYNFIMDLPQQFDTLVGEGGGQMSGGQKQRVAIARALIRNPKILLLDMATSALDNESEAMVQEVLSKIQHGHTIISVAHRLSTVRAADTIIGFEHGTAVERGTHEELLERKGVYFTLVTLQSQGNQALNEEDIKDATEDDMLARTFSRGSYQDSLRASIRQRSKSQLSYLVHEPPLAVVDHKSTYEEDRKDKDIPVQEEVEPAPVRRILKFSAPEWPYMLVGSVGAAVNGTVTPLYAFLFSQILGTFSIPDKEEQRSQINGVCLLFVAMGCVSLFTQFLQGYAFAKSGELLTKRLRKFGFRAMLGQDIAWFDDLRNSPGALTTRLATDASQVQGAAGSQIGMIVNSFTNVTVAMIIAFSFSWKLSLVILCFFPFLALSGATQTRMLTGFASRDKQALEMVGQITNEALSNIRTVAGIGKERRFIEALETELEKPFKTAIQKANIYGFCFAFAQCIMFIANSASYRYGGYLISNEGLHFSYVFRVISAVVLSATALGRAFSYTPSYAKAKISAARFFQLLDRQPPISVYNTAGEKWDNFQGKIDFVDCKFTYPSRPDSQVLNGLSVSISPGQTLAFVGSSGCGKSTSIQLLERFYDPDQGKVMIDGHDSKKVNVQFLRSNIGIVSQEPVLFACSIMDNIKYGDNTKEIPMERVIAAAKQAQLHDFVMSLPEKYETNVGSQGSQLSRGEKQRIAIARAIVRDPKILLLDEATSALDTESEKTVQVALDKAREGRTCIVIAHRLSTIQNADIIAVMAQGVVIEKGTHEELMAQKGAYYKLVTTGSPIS
measurement.kind: log10 AC50 (log10 of the value in µM)
Kindly note that the scale is log10 and the underlying AC50 is in µM.

Take a look at these entries with their results.
| compound | log10 AC50 |
| --- | --- |
| CC(=O)SCC(Cc1ccccc1)C(=O)NCC(=O)OCc1ccccc1 (stereo not drawn) | 1.32 |
| O=c1[nH]c2ccccc2n1CCN1CCN(c2cccc(C(F)(F)F)c2)CC1 | 1.46 |
| O=C(O)[C@@H](S)[C@@H](S)C(=O)O | 1.70 |
| CO[C@@H]1[C@@H](OC(N)=O)[C@@H](O)[C@H](Oc2ccc3c(O)c(NC(=O)c4ccc(O)c(CC=C(C)C)c4)c(=O)oc3c2C)OC1(C)C | 2.34 |
| CS(=O)(=O)Nc1ccc([N+](=O)[O-])cc1Oc1ccccc1 [NIMESULIDE] | 2.04 |
| CN1CC2c3ccccc3Oc3ccc(Cl)cc3C2C1 (stereo not drawn) | 2.43 |
| CN(C)CCC=C1c2ccccc2CCc2ccccc21 | 2.26 |
| C[C@H](Nc1ncnc2[nH]cnc12)c1cc2cccc(Cl)c2c(=O)n1-c1ccccc1 | 1.65 |
| O=C(O)COC(=O)Cc1ccccc1Nc1c(Cl)cccc1Cl | 2.11 |
| COc1cc2c(cc1OC)C1CC(=O)C(CC(C)C)CN1CC2 (stereo not drawn) | 1.87 |

Exercise: Looking for the measured log10 AC50 of OCCOCCN1CCN(C(c2ccccc2)c2ccc(Cl)cc2)CC1 (stereo not drawn) [HYDROXYZINE] , can you help?
Key: 2.43

Exercise: What do you have for "O=C1[C@@H]2[C@H]3CC[C@H](C3)[C@@H]2C(=O)N1C[C@@H]1CCCC[C@H]1CN1CCN(c2nsc3ccccc23)CC1" ?
Key: 1.11

Exercise: What do you get for "C[C@H](CCC(=O)O)[C@H]1CC[C@H]2[C@@H]3[C@H](O)C[C@@H]4C[C@H](O)CC[C@]4(C)[C@H]3CC[C@]12C" ?
Key: 1.11

Exercise: Also, "CCOC(=O)[C@H](CCc1ccccc1)N[C@@H](C)C(=O)N1Cc2ccccc2C[C@H]1C(=O)O" please.
Key: 2.00

Exercise: What do you have for "CCOC(=O)Nc1ccc(NCc2ccc(F)cc2)nc1N" ?
Key: 1.93

Exercise: Likewise for "N#Cc1ccnc(N2C(=O)CC[C@H]2C(=O)N(c2cncc(F)c2)[C@H](C(=O)NC2CC(F)(F)C2)c2ccccc2Cl)c1" ?
Key: 1.90
